Where do these numbers come from? They come from patent US20230357429A1.

# targetOrSystem: T1, Peptide-42 (cysteine pairing not given here; also: biotinylated, site not given here)
# T1 peptide: IDFCAMYHWPICDT
# assay: ELISA, Fab on captured biotin-peptide
Where no end group is shown, it is not given here.

binder	EC50 (nM)
TBD-11 (HC R98A) (Fab, V domains shown, Fab; also called HC R98A mutant) VH: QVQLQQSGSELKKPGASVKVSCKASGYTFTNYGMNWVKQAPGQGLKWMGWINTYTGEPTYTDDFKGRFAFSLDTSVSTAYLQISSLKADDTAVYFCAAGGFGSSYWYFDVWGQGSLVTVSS VL: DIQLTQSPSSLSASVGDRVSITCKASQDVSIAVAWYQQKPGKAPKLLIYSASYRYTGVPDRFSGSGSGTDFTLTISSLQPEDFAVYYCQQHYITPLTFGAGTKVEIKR	86.4
TBD-1 wt (Fab, V domains shown, Fab; the heavy chain entry is VH-CH1; also called wild-type anti-TROP2 Fab (hRS7); TROP2 Fab) VH: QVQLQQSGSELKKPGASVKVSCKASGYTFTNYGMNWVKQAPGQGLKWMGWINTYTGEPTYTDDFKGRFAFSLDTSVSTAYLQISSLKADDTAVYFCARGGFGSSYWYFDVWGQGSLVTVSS VL: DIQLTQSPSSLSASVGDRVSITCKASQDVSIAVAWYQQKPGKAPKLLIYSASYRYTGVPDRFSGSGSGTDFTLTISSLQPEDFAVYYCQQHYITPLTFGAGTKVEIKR	28.5
TBD-17 (HC S104A) (Fab, V domains shown, Fab; also called HC S104A mutant) VH: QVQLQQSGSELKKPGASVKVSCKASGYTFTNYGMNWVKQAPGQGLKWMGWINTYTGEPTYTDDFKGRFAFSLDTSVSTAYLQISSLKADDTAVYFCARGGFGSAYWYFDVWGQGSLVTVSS VL: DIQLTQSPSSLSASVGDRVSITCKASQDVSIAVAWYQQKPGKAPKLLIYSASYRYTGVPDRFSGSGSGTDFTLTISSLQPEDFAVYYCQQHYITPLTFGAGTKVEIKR	5.5
